molecules and their reported GI50
# Tested on: NCI/ADR-RES
# Measurement Notes: NCI tumour cell line growth inhibition, 48 h
Activity calls are given as the source filed them. No stated cut-off is given here; in the data, active = GI50 up to about 1.1 µM and inactive = higher.

The reported GI50 of the molecule Cc1ccc(C(=O)N/N=C(\N=N\c2cccc(Cl)c2)c2ccc(N(CCC#N)CCC#N)cc2C)cc1 was > 100 µM (inactive)

---

# Tested on: HCT-116
# Measurement Notes: NCI tumour cell line growth inhibition, 48 h
Activity calls are given as the source filed them. Rule as the data show it: active = GI50 up to about 1.1 µM and inactive = higher.
Please reply with one of these outcomes: active, inactive

COc1ccc(/C=c2\s/c(=C3/SC(=S)N(c4ccccc4)C3=O)n(-c3ccccc3)c2=O)cc1	inactive

query: Please indicate how the test categorized COCCNC(=O)C1C(=O)C(=O)N(CCOC)C1=O (stereo unspecified) .
result: inactive

query: Please indicate how the test categorized COc1cc2c(c(OC)c1OC)-c1ccc(OC)c(=O)cc1C(NC(=O)CCCCCNc1ccc(N=[N+]=[N-])cc1[N+](=O)[O-])CC2 (stereo unspecified) .
result: active

query: Please indicate how the test categorized CC(=O)NC(Cc1ccsc1)C(=O)O (stereo unspecified) .
result: inactive

query: Please indicate how the test categorized O=c1c(O)c(-c2ccc(O)c(O)c2)oc2cc(O)cc(O)c12 .
result: inactive

query: Please indicate how the test categorized COc1cc(N(CCC#N)CCC#N)ccc1C(/N=N/c1cccc([N+](=O)[O-])c1)=N\NC(=O)c1ccc(C)cc1 .
result: inactive

query: Please indicate how the test categorized COC(=O)C1[C@H](C(=O)OC)C1(Br)CBr (stereo partly specified) .
result: inactive

query: Please indicate how the test categorized O=C1OC(CC(=O)c2ccc(Cl)cc2Cl)C(Cl)=C1Cl (stereo unspecified) .
result: inactive

query: Please indicate how the test categorized CCOC(=O)N1CCN(Cc2cc(=O)n3ccc(C)cc3n2)CC1 .
result: inactive
